- EXPERIMENTAL_TARGET: T1, human RARα LBD (residues 153–421) (human, UniProt P10276 153-421)
- T1 chain: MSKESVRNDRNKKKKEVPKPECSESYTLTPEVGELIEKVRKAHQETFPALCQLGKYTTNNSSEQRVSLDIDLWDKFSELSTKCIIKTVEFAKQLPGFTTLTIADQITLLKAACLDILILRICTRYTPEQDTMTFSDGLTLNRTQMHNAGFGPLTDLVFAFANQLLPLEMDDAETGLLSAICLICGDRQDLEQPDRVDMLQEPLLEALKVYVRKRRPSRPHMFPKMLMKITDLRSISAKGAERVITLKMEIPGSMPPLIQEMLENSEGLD
- EXPERIMENT_DESCRIPTION: ITC; RAR antagonist
MEASURED_ENDPOINT: Kd

Request: Please report the recorded Kd for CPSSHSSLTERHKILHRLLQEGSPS [SRC-1 NR2 peptide (676-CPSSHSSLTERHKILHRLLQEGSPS-700)] .
Result: > 20 µM
